target: HLA-B*27:03; experiment: IEDB peptide-MHC binding, purified MHC/competitive/fluorescence; filed as Kd, often an IC50 or EC50 that approximates it; bounds were set here for any values at or beyond the usual limits of such assays; conditions: source organism: Bacillus anthracis str. A0488
pKd: −log10 of the molar value.
parameter: pKd

What value of measured pKd is listed for `KLWASFFQG` ? ≤ 4.70

* * *

target: HLA-B*27:05; assay: IEDB peptide-MHC binding, purified MHC/direct/fluorescence; filed as Kd, often an IC50 or EC50 that approximates it; bounds were set here for any values at or beyond the usual limits of such assays; conditions: source organism: Salmonella enterica
pKd: −log10 of the molar value.
parameter: pKd

So what pKd did `EEQTDPKTL` get with HLA-B*27:05? ≤ 4.70

* * *

molecular target: HLA-B*35:01; assay: IEDB peptide-MHC binding, purified MHC/competitive/fluorescence; filed as Kd, often an IC50 or EC50 that approximates it; bounds were set here for any values at or beyond the usual limits of such assays; details: source organism: Influenza A virus (A/81/HO)
parameter: pKd
Answers are plain numbers, as −log10 of the molar value.

What value of measured pKd is listed for `WMACNSAAF` ? 9.70

* * *

target: HLA-A*02:11; assay: IEDB peptide-MHC binding, purified MHC/competitive/fluorescence; filed as Kd, often an IC50 or EC50 that approximates it; bounds were set here for any values at or beyond the usual limits of such assays; settings: source organism: Bacillus anthracis str. A0488
parameter: pKd
Give bare numbers, as −log10 of the molar value.

What value of measured pKd is listed for `KLWASFFQG` ? 8.60

* * *

For each entry below, report its Kd value.
molecular target: HLA-A*02:03; assay: IEDB peptide-MHC binding, purified MHC/competitive/fluorescence; filed as Kd, often an IC50 or EC50 that approximates it; bounds were set here for any values at or beyond the usual limits of such assays; conditions: source organism: Human immunodeficiency virus 1
Numbers only, in nM.

chain=RSLFNTIAVLY measurednumber=356

Batch: Kd for all items listed.
1. GLGQHIYET
2. GLADQLIHL

1: 41; 2: 2

* * *

biological target: HLA-A*31:01; assay: IEDB peptide-MHC binding, purified MHC/competitive/radioactivity; filed as Kd, often an IC50 or EC50 that approximates it; bounds were set here for any values at or beyond the usual limits of such assays; settings: source organism: Mammarenavirus guanaritoense
parameter: Kd (µM)
Answers are plain numbers, in µM.

So what Kd did `TKTAVNMLTH` get with HLA-A*31:01? 7.55

* * *

molecular target: HLA-B*15:01; experiment: IEDB peptide-MHC binding, purified MHC/competitive/fluorescence; filed as Kd, often an IC50 or EC50 that approximates it; bounds were set here for any values at or beyond the usual limits of such assays; conditions: source organism: Yersinia pestis Nepal516
parameter: Kd (nM)
Numbers only, in nM.

What value of measured Kd is listed for `KTAVVVTRY` ? 674

* * *

target: HLA-A*26:03; experiment: IEDB peptide-MHC binding, purified MHC/competitive/fluorescence; filed as Kd, often an IC50 or EC50 that approximates it; bounds were set here for any values at or beyond the usual limits of such assays; conditions: source organism: Vaccinia virus Copenhagen
pKd: −log10 of the molar value.
parameter: pKd

What value of measured pKd is listed for `GLYRLNFRR` ? ≤ 4.70

* * *

molecular target: HLA-B*15:01; assay: IEDB peptide-MHC binding, purified MHC/direct/fluorescence; filed as Kd, often an IC50 or EC50 that approximates it; bounds were set here for any values at or beyond the usual limits of such assays; settings: source organism: Camelpox virus CMS
pKd: −log10 of the molar value.
parameter: pKd

What value of measured pKd is listed for `SSDDIPPRW` ? ≤ 4.70

* * *

biological target: HLA-B*35:01; test: IEDB peptide-MHC binding, purified MHC/competitive/fluorescence; filed as Kd, often an IC50 or EC50 that approximates it; bounds were set here for any values at or beyond the usual limits of such assays; conditions: source organism: Yersinia pestis Nepal516
parameter: Kd (nM)
Answers are plain numbers, in nM.

What value of measured Kd is listed for `FTIRDVLAY` ? 1.3

* * *

target: HLA-C*03:03; test: IEDB peptide-MHC binding, purified MHC/direct/fluorescence; filed as Kd, often an IC50 or EC50 that approximates it; bounds were set here for any values at or beyond the usual limits of such assays; conditions: source organism: Leishmania donovani
parameter: pKd
Numbers only, as −log10 of the molar value.

So what pKd did `DAMENPLSL` get with HLA-C*03:03? 6.20

* * *

target: HLA-B*51:01; test: IEDB peptide-MHC binding, purified MHC/competitive/fluorescence; filed as Kd, often an IC50 or EC50 that approximates it; bounds were set here for any values at or beyond the usual limits of such assays; settings: source organism: Mus musculus
pKd: −log10 of the molar value.
parameter: pKd

So what pKd did `VLWKSYPLV` get with HLA-B*51:01? ≤ 4.70

* * *

For each entry below, report its Kd value.
molecular target: HLA-B*40:02; assay: IEDB peptide-MHC binding, purified MHC/competitive/radioactivity; filed as Kd, often an IC50 or EC50 that approximates it; bounds were set here for any values at or beyond the usual limits of such assays; conditions: source organism: Mammarenavirus guanaritoense
Numbers only, in nM.

chain=AEAYCTGML unitsymbol=nM measurednumber=111

What value of measured Kd is listed for `EDFLLMYEM` ? 5.67

* * *

target: HLA-B*15:17; assay: IEDB peptide-MHC binding, purified MHC/direct/fluorescence; filed as Kd, often an IC50 or EC50 that approximates it; bounds were set here for any values at or beyond the usual limits of such assays; conditions: source organism: Vibrio parahaemolyticus AQ3810
parameter: Kd

So what Kd did `HQFTSNPEV` get with HLA-B*15:17? ≥ 20 µM

* * *

target: HLA-C*03:03; test: IEDB peptide-MHC binding, purified MHC/direct/fluorescence; filed as Kd, often an IC50 or EC50 that approximates it; bounds were set here for any values at or beyond the usual limits of such assays; conditions: source organism: Variola virus
parameter: pKd
Answers are plain numbers, as −log10 of the molar value.

So what pKd did `HMIDKLFYV` get with HLA-C*03:03? 6.10

* * *

target: HLA-A*01:01; experiment: IEDB peptide-MHC binding, purified MHC/direct/fluorescence; filed as Kd, often an IC50 or EC50 that approximates it; bounds were set here for any values at or beyond the usual limits of such assays; settings: source organism: Cryptosporidium parvum
parameter: Kd

What value of measured Kd is listed for `IINAHRIPK` ? ≥ 20 µM

* * *

target: HLA-A*02:01; experiment: IEDB peptide-MHC binding, purified MHC/competitive/fluorescence; bounds were set here for any values at or beyond the usual limits of such assays; details: source organism: Homo sapiens
parameter: IC50

What value of measured IC50 is listed for `LPSCPTNFCIF` ? ≥ 20 µM

* * *

molecular target: HLA-B*54:01; experiment: IEDB peptide-MHC binding, purified MHC/competitive/radioactivity; filed as Kd, often an IC50 or EC50 that approximates it; bounds were set here for any values at or beyond the usual limits of such assays; conditions: source organism: Vaccinia virus WR
For each entry below, report its pKd value.
Numbers only, as −log10 of the molar value.

// below: answered sequences
chain=MPVETLFGSY assayedtarget=HLA-B*54:01 parameter=pKd measurednumber=6.97
chain=KPESRPFDLI assayedtarget=HLA-B*54:01 parameter=pKd measurednumber=4.73

Batch: pKd for all items listed.
1. IPDELIDVL
2. MPEKRNVVVV
3. FPANINDKQI
4. LPMIIGEPI

1. 4.91
2. 7.39
3. 7.86
4. 8.80

* * *

target: HLA-B*40:01; test: IEDB peptide-MHC binding, purified MHC/competitive/radioactivity; filed as Kd, often an IC50 or EC50 that approximates it; bounds were set here for any values at or beyond the usual limits of such assays; conditions: source organism: Mammarenavirus lassaense
parameter: Kd

What value of measured Kd is listed for `HDLMKQKCL` ? ≥ 40 µM

* * *

molecular target: HLA-B*27:05; assay: IEDB peptide-MHC binding, purified MHC/competitive/fluorescence; filed as Kd, often an IC50 or EC50 that approximates it; bounds were set here for any values at or beyond the usual limits of such assays; conditions: source organism: Mycobacterium tuberculosis C
parameter: Kd (nM)
Answers are plain numbers, in nM.

What value of measured Kd is listed for `YRIWLEQNK` ? 82.5

* * *

target: HLA-B*15:42; experiment: IEDB peptide-MHC binding, purified MHC/competitive/fluorescence; filed as Kd, often an IC50 or EC50 that approximates it; bounds were set here for any values at or beyond the usual limits of such assays; settings: source organism: Influenza A virus (A/Fort Monmouth/1/1947-mouse adapted(H1N1))
parameter: Kd

So what Kd did `MQIRGFVYF` get with HLA-B*15:42? ≥ 5 µM
